// provenance: ChEMBL document CHEMBL1201861

- Test system: OE33;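 further: growth inhibition of human OE33 cells, measured by a cell viability assay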
- METHOD_SUMMARY: cells
- Format: functional, cell-based
- CONDITION_CONTEXT: Homo sapiens
- Description: SANGER: Inhibition of human OE33 cell growth in a cell viability assay.
pIC50: −log10 of the molar value.
PROPERTY_NAME: pIC50

CC(O)(CS(=O)(=O)c1ccc(F)cc1)C(=O)Nc1ccc(C#N)c(C(F)(F)F)c1 (stereo unspecified) [BICALUTAMIDE]
< 5.99
CCCS(=O)(=O)Nc1ccc(F)c(C(=O)c2c[nH]c3ncc(Cl)cc23)c1F
< 5.00
C/C(O)=C(\C#N)C(=O)Nc1cc(Br)ccc1Br
< 4.80
O=c1cc(N2CCOCC2)oc2c(-c3cccc4c3sc3ccccc34)cccc12
< 5.70
Cn1cc(/C=C2\C(=O)Nc3cccnc32)c2ccccc21
< 5.70

# ---- query compound ----
Bench note, OE33: entry `N#C/C(=C1/Nc2ccccc2S1)c1ccnc(NCCc2cccnc2)n1` , its pIC50 = < 5.10

###

- System: MC-IXC;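 further: growth inhibition of MC-IXC cells, read out with a cell viability assay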
- METHOD_SUMMARY: cells
- Format: functional, cell-based
- CONDITION_CONTEXT: Homo sapiens
- Description: SANGER: Inhibition of human MC-IXC cell growth in a cell viability assay.
PROPERTY_NAME: IC50

Cn1cc(/C=C2\C(=O)Nc3cccnc32)c2ccccc21
> 2000 nM
CO[C@@]12[C@H](COC(N)=O)C3=C(C(=O)C(C)=C(N)C3=O)N1C[C@@H]1N[C@@H]12
< 62.5 nM

Sample `C[C@]1(c2nc3c(C(N)=O)cccc3[nH]2)CCCN1` ; IC50 observed: > 5000 nM

###

- Test system: RPMI-2650
- METHOD_SUMMARY: cells
- Assay type: functional, cell-based
- CONDITION_CONTEXT: Homo sapiens
- Description: SANGER: Inhibition of human RPMI-2650 cell growth in a cell viability assay.
Provide the reported IC50 of each item.

Worked cases, IC50 given:
CCCS(=O)(=O)Nc1ccc(F)c(C(=O)c2c[nH]c3ncc(Cl)cc23)c1F
> 10000 nM
Cn1c(=O)n(-c2ccc(C(C)(C)C#N)cc2)c2c3cc(-c4cnc5ccccc5c4)ccc3ncc21
52.7 nM

The compound listed as `C[C@]1(c2nc3c(C(N)=O)cccc3[nH]2)CCCN1` has a reported IC50 of > 5000 nM

###

Provide the recorded IC50 for the entries that follow.
- Test system: SK-MEL-28
- METHOD_SUMMARY: cells
- Format: functional, cell-based
- CONDITION_CONTEXT: Homo sapiens
- Description: SANGER: Inhibition of human SK-MEL-28 cell growth in a cell viability assay.

C/C(O)=C(\C#N)C(=O)Nc1cc(Br)ccc1Br
> 16000 nM
Cn1cc(/C=C2\C(=O)Nc3cccnc32)c2ccccc21
> 2000 nM

Continue with the next molecule.
Item: CC(O)(CS(=O)(=O)c1ccc(F)cc1)C(=O)Nc1ccc(C#N)c(C(F)(F)F)c1 (stereo not drawn) [BICALUTAMIDE] | IC50: > 1020 nM

###

- System: NCI-H596
- METHOD_SUMMARY: cells
- Assay type: functional, cell-based
- CONDITION_CONTEXT: Homo sapiens
- Description: SANGER: Inhibition of human NCI-H596 cell growth in a cell viability assay.
PROPERTY_NAME: IC50

Use these answered entries as a reference point.
Cn1cc(/C=C2\C(=O)Nc3cccnc32)c2ccccc21
> 2 µM
CCNC(=O)c1noc(-c2cc(C(C)C)c(O)cc2O)c1-c1ccc(CN2CCOCC2)cc1
0.174 µM

Consider now this further compound.
So the reported IC50 for `C[C@]1(c2nc3c(C(N)=O)cccc3[nH]2)CCCN1` , on NCI-H596, turned out to be > 5 µM

###

- System: NMC-G1;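 further: growth inhibition of the NMC-G1 cell line, measured with a cell viability read-out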
- METHOD_SUMMARY: cells
- Type: functional, cell-based
- CONDITION_CONTEXT: Homo sapiens
- Description: SANGER: Inhibition of human NMC-G1 cell growth in a cell viability assay.
pIC50: −log10 of the molar value.
PROPERTY_NAME: pIC50

These recorded examples may help you get a feel for the data.
C[C@]1(c2nc3c(C(N)=O)cccc3[nH]2)CCCN1
< 5.30
CCNc1cc(N[C@H]2CC[C@@H](O)CC2)nc(Nc2ccc3c(ccn3Cc3ccccc3)c2)n1
< 5.29
CCn1c(-c2nonc2N)nc2cnc(Oc3cccc(NC(=O)c4ccc(OCCN5CCOCC5)cc4)c3)cc21 [GSK-269962A]
< 5.60

Let's switch to this molecule now.
`Cc1ccc(NC(=O)c2cccc(C(C)(C)C#N)c2)cc1Nc1ccc2ncn(C)c(=O)c2c1` yielded pIC50 of < 5.40

###

Assignment: determine reported pIC50 for the given compounds.
- Test system: Ca9-22
- METHOD_SUMMARY: cells
- Format: functional, cell-based
- CONDITION_CONTEXT: Homo sapiens
- Description: SANGER: Inhibition of human Ca9-22 cell growth in a cell viability assay.
pIC50: −log10 of the molar value.

I have 3 compounds here; please give me pIC50 for each one.
1. O=c1cc(N2CCOCC2)oc2c(-c3cccc4c3sc3ccccc34)cccc12
2. N#C/C(=C1/Nc2ccccc2S1)c1ccnc(NCCc2cccnc2)n1
3. Cn1cc(/C=C2\C(=O)Nc3cccnc32)c2ccccc21

output:
["< 5.70", "< 5.10", "< 5.70"]

###

- Tested on: HuP-T4;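 further: cell viability assay measuring how much HuP-T4 cell growth is inhibited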
- METHOD_SUMMARY: cells
- Format: functional, cell-based
- CONDITION_CONTEXT: Homo sapiens
- Description: SANGER: Inhibition of human HuP-T4 cell growth in a cell viability assay.
pIC50: −log10 of the molar value.
PROPERTY_NAME: pIC50

CC(=O)c1c(C)c2cnc(Nc3ccc(N4CCNCC4)cn3)nc2n(C2CCCC2)c1=O
< 5.40

// for each compound below, give its pIC50
1. CCCS(=O)(=O)Nc1ccc(F)c(C(=O)c2c[nH]c3ncc(Cl)cc23)c1F
2. O=c1cc(N2CCOCC2)oc2c(-c3cccc4c3sc3ccccc34)cccc12

output:
["< 5.00", "< 5.70"]

Lab note: measured pIC50 of CC(O)(CS(=O)(=O)c1ccc(F)cc1)C(=O)Nc1ccc(C#N)c(C(F)(F)F)c1 (centres undefined) [BICALUTAMIDE] was < 5.99

###

- Tested on: KYSE-70 cell line;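 further: cell viability assay read-out, with IC50 expressing suppression of KYSE-70 cell growth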
- METHOD_SUMMARY: cells
- Type: functional, cell-based
- CONDITION_CONTEXT: Homo sapiens
- Description: SANGER: Inhibition of human KYSE-70 cell growth in a cell viability assay.
PROPERTY_NAME: IC50

CC(=O)c1c(C)c2cnc(Nc3ccc(N4CCNCC4)cn3)nc2n(C2CCCC2)c1=O
> 4 µM
CCCS(=O)(=O)Nc1ccc(F)c(C(=O)c2c[nH]c3ncc(Cl)cc23)c1F
> 10 µM

Attention now shifts to the item below.
Record summary for `O=c1cc(N2CCOCC2)oc2c(-c3cccc4c3sc3ccccc34)cccc12` : reported IC50 = > 2 µM

###

- Tested on: 8305C
- METHOD_SUMMARY: cells
- Assay type: functional, cell-based
- CONDITION_CONTEXT: Homo sapiens
- Description: SANGER: Inhibition of human 8305C cell growth in a cell viability assay.
So I've got a bunch of molecules here, and I need their IC50 values.

NC(=O)c1ncn([C@@H]2O[C@H](COP(=O)(O)O)[C@@H](O)[C@H]2O)c1N
> 2000 µM
O=c1cc(N2CCOCC2)oc2c(-c3cccc4c3sc3ccccc34)cccc12
> 2 µM

Continue with the next molecule.
The recorded IC50 for entry CC(O)(CS(=O)(=O)c1ccc(F)cc1)C(=O)Nc1ccc(C#N)c(C(F)(F)F)c1 (stereo not drawn) [BICALUTAMIDE] equals > 1.02 µM

###

- System: SNU-387
- METHOD_SUMMARY: cells
- Format: functional, cell-based
- CONDITION_CONTEXT: Homo sapiens
- Description: SANGER: Inhibition of human SNU-387 cell growth in a cell viability assay.
For each entry below, report its pIC50 value.
Numbers only, as −log10 of the molar value.

N#C/C(=C1/Nc2ccccc2S1)c1ccnc(NCCc2cccnc2)n1
5.42

Measured pIC50 of `C[C@]12O[C@H](C[C@]1(O)CO)n1c3ccccc3c3c4c(c5c6ccccc6n2c5c31)CNC4=O` : 6.22

###

- Tested on: P12-Ichikawa
- METHOD_SUMMARY: cells
- Assay type: functional, cell-based
- CONDITION_CONTEXT: Homo sapiens
PROPERTY_NAME: IC50

Below, 2 compounds whose answers are already recorded.
O=c1cc(N2CCOCC2)oc2c(-c3cccc4c3sc3ccccc34)cccc12
> 2000 nM
Cn1cc(/C=C2\C(=O)Nc3cccnc32)c2ccccc21
> 2000 nM

The compound listed as CO[C@@]12[C@H](COC(N)=O)C3=C(C(=O)C(C)=C(N)C3=O)N1C[C@@H]1N[C@@H]12 [MITOMYCIN] has a reported IC50 of < 62.5 nM

###

Please respond with reported pIC50 for every item in the list.
- Test system: MEG-01;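 further: growth inhibition of MEG-01 cells, read out by a cell viability assay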
- METHOD_SUMMARY: cells
- Format: functional, cell-based
- CONDITION_CONTEXT: Homo sapiens
- Description: SANGER: Inhibition of human MEG-01 cell growth in a cell viability assay.
pIC50: −log10 of the molar value.

Give one value of pIC50 per listed compound.
1. CCn1c(-c2nonc2N)nc2cnc(Oc3cccc(NC(=O)c4ccc(OCCN5CCOCC5)cc4)c3)cc21 [GSK-269962A]
2. Cc1[nH]c(/C=C2\C(=O)Nc3ccc(S(=O)(=O)Cc4c(Cl)cccc4Cl)cc32)c(C)c1C(=O)N1CCC[C@@H]1CN1CCCC1 [PHA-665752]

output:
1: < 5.60; 2: < 5.70

# batch size: 2; output pIC50 per entry
1. CC(=O)c1c(C)c2cnc(Nc3ccc(N4CCNCC4)cn3)nc2n(C2CCCC2)c1=O [PALBOCICLIB]
2. CCCS(=O)(=O)Nc1ccc(F)c(C(=O)c2c[nH]c3ncc(Cl)cc23)c1F [PLX-4720]

output:
1: < 5.40; 2: < 5.00
